biological target: Carbonic anhydrase 2 (Homo sapiens) (UniProt P00918); test: CAII small-molecule binders, profiling panel, biochemical, small-molecule microarray, Alexa647-labelled CAII (AID 1122); details: CAII-A647 binding fluorescence, higher = more signal
The threshold is inclusive: composite z-score of exactly 0.1 counts as label 1; values below receive label 0.

Is composite z-score for O=C1CCCC2OC12C(O)CCc1ccccc1 (stereo not drawn) at or above 0.1?
label 0

Is composite z-score for "CO[C@@H]1COC(=O)[C@@H]2CCCN2C(=O)[C@@H](C)COC(=O)[C@H](COCc2ccccc2)NC(=O)CC=C[C@H]1C" at or above 0.1?
label 1

Is composite z-score for "COC(=O)c1c(CC[C@@H](CO)NC(=O)N[C@H](Cc2ccccc2)Cn2cc(-c3ccccc3N)nn2)oc(C(C)=O)c1C(=O)OC" at or above 0.1?
label 0

Is composite z-score for CN(C)c1ccc(C(O)C2C=CC3C(=O)N(c4ccccc4)C(=O)C3N2Nc2ccccc2F)cc1 (stereo not drawn) at or above 0.1?
label 1

Is composite z-score for "O=C1[C@H]2[C@H]3[C@H](O)[C@H](O)CC(=NOC[C@@H](O)COCc4ccco4)[C@H]3CC[C@H]2C(=O)N1C1CCCCC1" at or above 0.1?
label 0

Is composite z-score for "COCCCNC(=O)[C@@]1(C)c2ccccc2C(=O)N(Cc2ccc(OC(F)(F)F)cc2)[C@H]1c1ccc(CO)cc1" at or above 0.1?
label 1

Is composite z-score for CC(C)c1ccc(NN2C(C(O)c3ccc4c(c3)OCO4)C=CC3C(=O)N(c4ccccc4)C(=O)C32)cc1 (stereo not drawn) at or above 0.1?
label 1

Is composite z-score for "O=C1[C@H]2[C@H]3[C@H](O)[C@H](O)CC(=NOC[C@@H](O)COCc4ccco4)[C@H]3CC[C@H]2C(=O)N1c1cccc(Oc2ccccc2)c1" at or above 0.1?
label 1
